Tested on: 966289-007-R4-J1-PDC complex spheroid viability;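 also: spheroids exposed to agents for one week before readout; percent viability relative to DMSO vehicle control wells as 100%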
Assay: Anticancer human tumor 966289-007-R4-J1-PDC patient-derived pancreatic adenocarcinoma cell line growth inhibition [RAS]
Details: second compound 0.0316 µM; first compound 0.316 µM; stronger effect = lower value
Text: RAS pathway inhibitors in Combinations in Complex Spheroids A high-throughput screen of multi-cell type tumor spheroids was designed to identify active combinations of RAS pathway inhibitors and targeted small molecules. Complex spheroids include a stromal component modeled by human endothelial cells (HUVEC) and fibroblasts modeled by human mesenchymal stem cells (MSCs). […] Compounds. […] If the clinical Cmax for an agent had not been determined, the highest concentration tested was 10 microM. […]
Measured Quantity: viability, T/C (%)
Answer format: numeric, % implied, no suffix.

Worked set:
CC(C)NCC(C(=O)N1CCN(c2ncnc3c2C(C)CC3O)CC1)c1ccc(Cl)cc1 (stereo not given) + C#Cc1c(F)ccc2cc(O)cc(-c3ncc4c(N5CC6CCC(C5)N6)nc(OCC56CCCN5CC(F)C6)nc4c3F)c12 = 108
CC(Nc1ccc2c(c1)OCCn1cc(N3C(=O)OCC3C(F)F)nc1-2)C(N)=O (stereo not given) + C=CC(=O)N1CCN(c2nc(OCC3CCCN3C)nc3c(F)c(-c4nc(N)cc(C)c4C(F)(F)F)c(Cl)cc23)C(C)C1 = 114
CCC(CC)c1cc(NC2CCC(N)C2)n2nccc2n1 (stereo not given) + C#Cc1c(F)ccc2cc(O)cc(-c3ncc4c(N5CC6CCC(C5)N6)nc(OCC56CCCN5CC(F)C6)nc4c3F)c12 = 97.2
C=CC(=O)N1CCN(c2nc(OCC3CCCN3C)nc3c(F)c(-c4nc(N)cc(C)c4C(F)(F)F)c(Cl)cc23)C(C)C1 (stereo not given) + C#Cc1c(F)ccc2cc(O)cc(-c3ncc4c(N5CC6CCC(C5)N6)nc(OCC56CCCN5CC(F)C6)nc4c3F)c12 = 108

// moving on: another record for viability, T/C
viability, T/C lookup needed for Nc1ccn(C2OC(CO)C(O)C2(F)F)c(=O)n1 (stereo not given) + C#Cc1c(F)ccc2cc(O)cc(-c3ncc4c(N5CC6CCC(C5)N6)nc(OCC56CCCN5CC(F)C6)nc4c3F)c12 , thanks. 1.38

Just for reference, PubChem BioAssay AID2060897 is where these values come from.
